Parameter IC50: see the listing below.
TARGET OF ASSAY: T1, HLA-A2 on JY cells (human)
T1 construct: also called HLA-A*0201; JY cells (HLA-A020)
METHOD SUMMARY: competition-based cellular peptide binding assay on stripped JY cells, FACS; competitor fluorescent-labelled reference peptide 150 nM

>  <BINDER>
YLEYRQVPG (self-protein in melanoma) [MAGE A wt]

>  <IC50, nM>
128

$$$$
>  <BINDER>
MLYQHLLPL (Synthetic peptide, purity >85%) [INS-DRiP1-9 peptide MLYQHLLPL]

>  <IC50, nM>
2.3

$$$$

All values here come from patent US20190330297A1.
